The reported numbers originate from paper PMC3817407.

# systemTested: T1, ECF17_1691
# T1 chain: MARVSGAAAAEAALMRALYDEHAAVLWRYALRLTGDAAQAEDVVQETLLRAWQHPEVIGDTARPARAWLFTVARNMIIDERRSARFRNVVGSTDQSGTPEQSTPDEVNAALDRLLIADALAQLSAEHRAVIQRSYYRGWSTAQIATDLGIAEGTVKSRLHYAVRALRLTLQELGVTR
measuredParameter: fold repression

>>> reading("AS16_3622 (protein) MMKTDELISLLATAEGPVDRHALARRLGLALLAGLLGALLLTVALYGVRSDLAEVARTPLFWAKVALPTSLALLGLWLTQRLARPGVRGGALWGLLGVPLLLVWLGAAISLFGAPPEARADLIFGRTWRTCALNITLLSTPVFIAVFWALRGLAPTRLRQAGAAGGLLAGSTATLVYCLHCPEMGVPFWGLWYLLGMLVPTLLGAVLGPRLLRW")
2.43
>>> reading("AS22_4450 (protein) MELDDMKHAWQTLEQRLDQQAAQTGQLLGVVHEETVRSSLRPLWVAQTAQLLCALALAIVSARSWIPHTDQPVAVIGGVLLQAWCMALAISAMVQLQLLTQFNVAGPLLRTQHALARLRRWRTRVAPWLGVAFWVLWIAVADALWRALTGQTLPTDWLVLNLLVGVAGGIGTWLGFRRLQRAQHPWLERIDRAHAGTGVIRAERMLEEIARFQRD")
1.52
>>> reading("AS03_1198 (protein) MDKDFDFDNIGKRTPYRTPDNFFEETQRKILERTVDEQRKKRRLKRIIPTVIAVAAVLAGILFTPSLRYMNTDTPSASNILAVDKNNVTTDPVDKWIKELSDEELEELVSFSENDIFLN")
0.986
>>> reading("AS25_1645 (protein) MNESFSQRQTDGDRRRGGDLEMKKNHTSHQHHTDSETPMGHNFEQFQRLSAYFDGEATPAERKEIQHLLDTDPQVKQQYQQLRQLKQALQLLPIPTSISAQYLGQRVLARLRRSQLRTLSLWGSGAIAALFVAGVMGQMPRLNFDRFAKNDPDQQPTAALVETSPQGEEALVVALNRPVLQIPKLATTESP")
4.24
>>> reading("AS15_436 (protein) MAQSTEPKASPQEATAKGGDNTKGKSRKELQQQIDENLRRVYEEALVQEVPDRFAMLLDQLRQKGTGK")
4.15
>>> reading("AS31_34 (protein) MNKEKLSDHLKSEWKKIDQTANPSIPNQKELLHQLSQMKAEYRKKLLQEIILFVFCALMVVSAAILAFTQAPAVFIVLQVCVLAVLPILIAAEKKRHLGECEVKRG")
2.93
>>> reading("AS20_992 (protein) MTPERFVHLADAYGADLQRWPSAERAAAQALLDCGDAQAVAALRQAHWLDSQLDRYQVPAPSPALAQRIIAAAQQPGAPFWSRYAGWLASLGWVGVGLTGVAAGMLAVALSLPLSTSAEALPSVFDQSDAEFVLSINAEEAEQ")
2.05
